biological target: Metabotropic glutamate receptor 5 (Homo sapiens, UniProt P41594); test: Antagonist activity at mGluR5
Sequence (P41594 whole entry): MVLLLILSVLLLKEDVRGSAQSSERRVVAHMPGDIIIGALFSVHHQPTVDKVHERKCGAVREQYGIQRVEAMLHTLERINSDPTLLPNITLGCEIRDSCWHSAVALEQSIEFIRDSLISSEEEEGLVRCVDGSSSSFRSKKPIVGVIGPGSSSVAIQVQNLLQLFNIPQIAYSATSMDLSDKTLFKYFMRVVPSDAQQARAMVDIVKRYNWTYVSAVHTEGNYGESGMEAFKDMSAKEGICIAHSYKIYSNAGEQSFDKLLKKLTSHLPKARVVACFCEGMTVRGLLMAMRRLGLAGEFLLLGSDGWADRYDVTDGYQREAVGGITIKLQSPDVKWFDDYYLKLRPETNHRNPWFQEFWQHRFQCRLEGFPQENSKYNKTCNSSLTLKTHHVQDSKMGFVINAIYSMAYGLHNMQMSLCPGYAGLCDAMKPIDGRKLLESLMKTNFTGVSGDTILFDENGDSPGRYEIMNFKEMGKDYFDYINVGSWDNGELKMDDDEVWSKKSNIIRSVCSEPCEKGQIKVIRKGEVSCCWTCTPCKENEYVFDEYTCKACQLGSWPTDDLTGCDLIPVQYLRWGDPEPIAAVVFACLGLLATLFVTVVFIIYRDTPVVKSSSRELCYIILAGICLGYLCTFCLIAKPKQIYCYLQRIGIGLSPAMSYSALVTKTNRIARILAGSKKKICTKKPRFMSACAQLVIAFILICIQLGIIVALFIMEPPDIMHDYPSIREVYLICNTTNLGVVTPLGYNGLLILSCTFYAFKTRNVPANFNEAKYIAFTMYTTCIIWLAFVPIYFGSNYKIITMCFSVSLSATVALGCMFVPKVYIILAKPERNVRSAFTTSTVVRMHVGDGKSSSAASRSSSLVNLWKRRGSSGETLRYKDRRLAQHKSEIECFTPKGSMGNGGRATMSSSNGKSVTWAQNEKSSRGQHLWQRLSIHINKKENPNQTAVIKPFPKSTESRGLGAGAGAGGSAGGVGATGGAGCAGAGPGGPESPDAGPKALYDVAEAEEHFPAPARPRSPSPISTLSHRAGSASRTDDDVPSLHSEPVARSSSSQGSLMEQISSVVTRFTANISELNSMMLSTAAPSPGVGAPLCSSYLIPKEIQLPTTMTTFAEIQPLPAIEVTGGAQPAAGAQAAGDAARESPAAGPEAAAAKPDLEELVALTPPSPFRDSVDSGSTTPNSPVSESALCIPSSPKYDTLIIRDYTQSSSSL
Quantity: IC50 (nM)
Output spec: scalar in nM, unitless text.

Kindly indicate its recorded IC50. Item: "COc1ccccc1C(=O)Nc1cccc(NC(=O)c2cccc(Cl)c2)c1"
1100

----------
biological target: Metabotropic glutamate receptor 5 (Rattus norvegicus); experiment: Antagonist activity at rat mGluR5 expressed in human HEK293A cells assessed as inhibition of glutamate-induced calcium flux
Sequence (P31424 whole entry): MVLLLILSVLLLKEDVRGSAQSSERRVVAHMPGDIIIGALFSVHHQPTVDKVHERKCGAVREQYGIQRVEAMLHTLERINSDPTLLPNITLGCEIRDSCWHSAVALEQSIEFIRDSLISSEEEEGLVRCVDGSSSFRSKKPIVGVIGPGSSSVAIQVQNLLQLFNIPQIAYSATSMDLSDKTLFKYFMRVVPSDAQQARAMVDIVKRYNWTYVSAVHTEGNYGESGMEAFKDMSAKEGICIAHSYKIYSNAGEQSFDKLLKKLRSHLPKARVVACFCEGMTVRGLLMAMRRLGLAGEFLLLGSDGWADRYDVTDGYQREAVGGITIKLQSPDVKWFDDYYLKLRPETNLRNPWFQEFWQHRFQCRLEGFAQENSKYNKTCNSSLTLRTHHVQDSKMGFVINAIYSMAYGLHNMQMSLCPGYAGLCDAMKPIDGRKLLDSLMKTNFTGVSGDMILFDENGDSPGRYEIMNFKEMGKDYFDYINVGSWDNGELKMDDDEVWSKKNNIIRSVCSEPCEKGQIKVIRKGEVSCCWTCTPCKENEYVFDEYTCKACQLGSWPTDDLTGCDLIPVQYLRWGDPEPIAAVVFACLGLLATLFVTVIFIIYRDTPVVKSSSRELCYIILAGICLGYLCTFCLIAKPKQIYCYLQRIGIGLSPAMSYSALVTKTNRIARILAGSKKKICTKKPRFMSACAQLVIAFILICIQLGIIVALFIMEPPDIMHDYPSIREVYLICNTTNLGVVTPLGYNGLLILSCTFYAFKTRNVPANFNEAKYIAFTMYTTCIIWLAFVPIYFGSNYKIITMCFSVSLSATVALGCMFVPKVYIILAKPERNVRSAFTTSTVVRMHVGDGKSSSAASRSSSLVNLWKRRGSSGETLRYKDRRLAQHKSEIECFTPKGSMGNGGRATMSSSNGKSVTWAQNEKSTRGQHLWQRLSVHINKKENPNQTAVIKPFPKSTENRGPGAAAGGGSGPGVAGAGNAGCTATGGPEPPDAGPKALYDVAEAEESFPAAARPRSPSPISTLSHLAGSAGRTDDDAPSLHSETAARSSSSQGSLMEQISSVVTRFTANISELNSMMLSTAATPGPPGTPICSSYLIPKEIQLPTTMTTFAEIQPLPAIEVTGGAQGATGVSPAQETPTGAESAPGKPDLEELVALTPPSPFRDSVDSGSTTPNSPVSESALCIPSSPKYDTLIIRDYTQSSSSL
pIC50: −log10 of the molar value.
The entries below come with measured pIC50 values attached.

Here's what some known entries look like.
| Compound | Target system | Quantity | Endpoint value |
| --- | --- | --- | --- |
| COc1ccccc1C(=O)Nc1cccc(NC(=O)c2cc(Cl)cc(Cl)c2)c1 | Metabotropic glutamate receptor 5 (Rattus norvegicus) | pIC50 | < 4.52 |
| COc1ccccc1C(=O)Nc1cccc(NC(=O)c2cccc(Cl)c2)c1 | Metabotropic glutamate receptor 5 (Rattus norvegicus) | pIC50 | 6.06 |
| O=C(Nc1cccc(NC(=O)C2CC2)c1)c1cccc(Cl)c1 | Metabotropic glutamate receptor 5 (Rattus norvegicus) | pIC50 | 5.65 |
| O=C(Nc1ccc(F)cc1)c1cccc(N2C(=O)c3ccccc3C2=O)c1 | Metabotropic glutamate receptor 5 (Rattus norvegicus) | pIC50 | < 4.52 |
| Cc1cccc(C(=O)Nc2cccc(NC(=O)c3cccc(Cl)c3)c2)c1 | Metabotropic glutamate receptor 5 (Rattus norvegicus) | pIC50 | < 4.52 |

Kindly indicate its recorded pIC50. Item: "COCC(=O)Nc1cccc(NC(=O)c2cccc(Cl)c2)c1"
< 4.52

Kindly indicate its recorded pIC50. Item: "O=C(Nc1cccc(O)c1)c1cccc(N2C(=O)c3ccccc3C2=O)c1"
5.11

Kindly indicate its recorded pIC50. Item: "COc1ccccc1C(=O)Nc1cccc(NC(=O)c2ccc(Cl)cc2)c1"
< 4.52

Kindly indicate its recorded pIC50. Item: "COc1ccccc1C(=O)Nc1cccc(NC(=O)C2CC2)c1"
< 4.52

Kindly indicate its recorded pIC50. Item: "COc1ccccc1C(=O)Nc1cccc(NC(=O)c2cccc(C#N)c2)c1"
5.74

Kindly indicate its recorded pIC50. Item: "O=C(Nc1cccnc1)c1cccc(N2C(=O)c3ccccc3C2=O)c1"
< 4.52

----------
target: Metabotropic glutamate receptor 5 (Rattus norvegicus) (UniProt P31424); assay: Antagonist activity at rat mGluR5 expressed in human HEK293A cells assessed as inhibition of glutamate-induced calcium flux relative to glutamate; type: functional, cell-based; details: HEK293-A
Sequence (P31424 21-1203 limits assumed): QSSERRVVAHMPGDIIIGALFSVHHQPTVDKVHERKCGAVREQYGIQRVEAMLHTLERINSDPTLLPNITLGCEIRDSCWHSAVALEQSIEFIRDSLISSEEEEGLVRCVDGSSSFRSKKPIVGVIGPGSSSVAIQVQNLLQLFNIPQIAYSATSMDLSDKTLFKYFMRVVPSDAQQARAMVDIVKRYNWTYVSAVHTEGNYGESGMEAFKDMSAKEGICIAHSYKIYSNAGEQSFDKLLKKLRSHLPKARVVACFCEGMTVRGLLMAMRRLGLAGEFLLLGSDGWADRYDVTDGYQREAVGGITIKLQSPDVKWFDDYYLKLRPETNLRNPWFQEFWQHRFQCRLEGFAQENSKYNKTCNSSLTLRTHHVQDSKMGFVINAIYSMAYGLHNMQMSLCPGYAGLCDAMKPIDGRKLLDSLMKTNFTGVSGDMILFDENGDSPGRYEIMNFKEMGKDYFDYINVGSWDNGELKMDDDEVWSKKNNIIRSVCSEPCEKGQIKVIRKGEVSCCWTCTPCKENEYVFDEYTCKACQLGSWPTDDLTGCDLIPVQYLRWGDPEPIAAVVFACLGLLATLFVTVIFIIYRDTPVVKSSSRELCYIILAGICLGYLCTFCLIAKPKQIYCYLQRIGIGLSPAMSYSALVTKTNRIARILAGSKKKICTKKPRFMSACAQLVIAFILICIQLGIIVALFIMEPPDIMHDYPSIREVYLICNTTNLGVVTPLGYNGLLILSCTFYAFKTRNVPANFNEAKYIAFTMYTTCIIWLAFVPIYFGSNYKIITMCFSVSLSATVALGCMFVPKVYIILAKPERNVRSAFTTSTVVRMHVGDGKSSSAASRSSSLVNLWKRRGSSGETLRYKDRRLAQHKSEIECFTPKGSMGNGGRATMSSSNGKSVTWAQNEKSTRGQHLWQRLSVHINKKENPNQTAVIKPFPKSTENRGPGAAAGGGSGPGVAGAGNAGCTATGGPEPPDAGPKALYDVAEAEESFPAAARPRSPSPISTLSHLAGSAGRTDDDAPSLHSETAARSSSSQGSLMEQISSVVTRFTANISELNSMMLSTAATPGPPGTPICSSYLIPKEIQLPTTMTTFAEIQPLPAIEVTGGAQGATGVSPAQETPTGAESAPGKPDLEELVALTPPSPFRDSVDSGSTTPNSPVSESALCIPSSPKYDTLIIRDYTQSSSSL
The entries below come with measured % Glu Max values attached.
Output spec: scalar in %, unitless text.

| Compound | % Glu Max, % |
| --- | --- |
| COc1ccccc1C(=O)Nc1cccc(NC(=O)c2cccc(C#N)c2)c1 | 3.22 |

Kindly indicate its recorded % Glu Max. Item: "O=C(Nc1ccccn1)c1cccc(N2C(=O)c3ccccc3C2=O)c1"
59.5

Kindly indicate its recorded % Glu Max. Item: "COc1ccccc1C(=O)Nc1cccc(NC(=O)c2cccc(C)c2)c1"
3.82

Kindly indicate its recorded % Glu Max. Item: "O=C(Nc1cccc(NC(=O)c2ccccc2Cl)c1)c1cccc(Cl)c1"
8.78

Kindly indicate its recorded % Glu Max. Item: "O=C(Nc1ccccc1F)c1cccc(N2C(=O)c3ccccc3C2=O)c1"
49.9

Kindly indicate its recorded % Glu Max. Item: "O=C(Nc1cccc(O)c1)c1cccc(N2C(=O)c3ccccc3C2=O)c1"
48.1

Kindly indicate its recorded % Glu Max. Item: "O=C(Nc1cccnc1)c1cccc(N2C(=O)c3ccccc3C2=O)c1"
86

Kindly indicate its recorded % Glu Max. Item: "CC(=O)Nc1cccc(NC(=O)c2cccc(Cl)c2)c1"
39.6

Kindly indicate its recorded % Glu Max. Item: "O=C(Nc1cccc(NC(=O)C2CCC2)c1)c1cccc(Cl)c1"
44

Kindly indicate its recorded % Glu Max. Item: O=C(NC1CC2CCC1C2)c1cccc(N2C(=O)c3ccccc3C2=O)c1 (stereo unspecified)
71
